Each entry below lists one item and its recorded % of the activation by the optimized sequence RNKEVKDALKRLLKRKCC value.
tested-system: OR7C1 (Homo sapiens, UniProt O76099, D296E/G302K/M297V/R299D/T295K/V126I)
Construct: Improved functional expression of modified OR-genes containing the truncated, optimized C-terminus; expressed in transfected cells; host or cells: HEK293T stably expressing human RTP1S(V227I) and RTP2(L220R)
Sequence (O76099 with tags, fused parts or gaps V126I/T295K/D296E/M297V/R299D/G302K): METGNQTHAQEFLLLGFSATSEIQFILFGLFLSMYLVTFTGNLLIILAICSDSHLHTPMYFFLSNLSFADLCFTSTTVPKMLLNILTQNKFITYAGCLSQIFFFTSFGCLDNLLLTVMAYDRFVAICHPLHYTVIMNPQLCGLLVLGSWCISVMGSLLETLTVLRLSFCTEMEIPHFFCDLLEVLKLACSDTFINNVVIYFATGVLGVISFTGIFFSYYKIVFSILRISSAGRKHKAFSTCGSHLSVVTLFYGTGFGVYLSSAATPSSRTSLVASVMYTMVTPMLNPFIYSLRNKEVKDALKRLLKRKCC
run-description: CRE-luciferase assay, HEK293T cells expressing OR7C1 (wild-type / modified C-terminus)
Format: cell-based
assay-context: OR7C1 variant, 1 μM Ambermax
Quote the value and follow it with the unit of measurement.

Example entries and their recorded answers appear below.
SEQ ID NO: 121 (RNKEVKRAIKRLLKRKCR; source 1..18: note = C-terminal domain sequence) | 346.4%
SEQ ID NO: 123 (RNKEVKRALKRLLKRKRR; source 1..18: note = C-terminal domain sequence) | 312.9%
SEQ ID NO: 322 (RNKEVKFALKRLLKRKCC; source 1..18: note = C-terminal domain sequence) | 41.1%
SEQ ID NO: 197 (RNKEVKDALKRLLERKCC; source 1..18: note = C-terminal domain sequence) | 5.6%
SEQ ID NO: 89 (RNKEMKDALKRLLKRKCC; source 1..18: note = C-terminal domain sequence) | 76.7%

Measured % of the activation by the optimized sequence RNKEVKDALKRLLKRKCC, SEQ ID NO: 129 (RNKEVKKALKRLLKRKRF; source 1..18: note = C-terminal domain sequence) : 294.8%

Measured % of the activation by the optimized sequence RNKEVKDALKRLLKRKCC, SEQ ID NO: 126 (RNKEVKRALKRLLKRKFK; source 1..18: note = C-terminal domain sequence) : 280.9%

---

Each entry below lists one item and its recorded EC2 Fold-improvement vs. wild-type value.
tested-system: OR7D4 (Homo sapiens, UniProt Q8NG98, D296E/E302K/G299D)
Construct: Improved functional expression of modified OR-genes containing the truncated, optimized C-terminus; expressed in transfected cells
Sequence (Q8NG98 with tags, fused parts or gaps D296E/G299D/E302K): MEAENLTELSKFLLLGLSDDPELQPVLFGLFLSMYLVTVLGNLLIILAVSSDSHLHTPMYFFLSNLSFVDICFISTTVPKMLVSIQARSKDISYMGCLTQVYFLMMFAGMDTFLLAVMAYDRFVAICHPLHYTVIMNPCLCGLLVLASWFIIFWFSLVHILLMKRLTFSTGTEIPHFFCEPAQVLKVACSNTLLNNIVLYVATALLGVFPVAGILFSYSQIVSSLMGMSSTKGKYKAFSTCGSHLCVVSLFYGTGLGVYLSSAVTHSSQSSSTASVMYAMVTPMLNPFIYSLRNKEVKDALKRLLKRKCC
run-description: CRE-luciferase assay, HEK cells expressing OR7D4 (wild-type / modified C-terminus)
Assay type: cell-based
assay-context: OR7D4 variant, Androstenone
# respond with the number and nothing more

Example entries and their recorded answers appear below.
SEQ ID NO: 263 (RNRDVRKAVRRLFRKRCC; source 1..18: note = C-terminal domain sequence) | 304.87
SEQ ID NO: 260 (RNKELRKALHKLLGRKCC; source 1..18: note = C-terminal domain sequence) | 39.74
SEQ ID NO: 294 (RNRDIRKALRKLFKKKCC; source 1..18: note = C-terminal domain sequence) | 224.95
SEQ ID NO: 284 (RNREMRKALRRLFRKRCC; source 1..18: note = C-terminal domain sequence) | 545.04
SEQ ID NO: 274 (RNKELKKAIKRILKKKCC; source 1..18: note = C-terminal domain sequence) | 18.20

Measured EC2 Fold-improvement vs. wild-type, SEQ ID NO: 301 (RNKEVKKAIRKLFGRRCC; source 1..18: note = C-terminal domain sequence) : 128.57

Measured EC2 Fold-improvement vs. wild-type, SEQ ID NO: 262 (RNKDVRKAVRKLIRRRCC; source 1..18: note = C-terminal domain sequence) : 165.32

---

Each entry below lists one item and its recorded % of the activation by the optimized sequence RNKEVKDALKRLLKRKCC value.
tested-system: OR7C1 (Homo sapiens, UniProt O76099, D296E/G302K/M297V/R299D/T295K/V126I)
Construct: Improved functional expression of modified OR-genes containing the truncated, optimized C-terminus; expressed in transfected cells; host or cells: HEK293T stably expressing human RTP1S(V227I) and RTP2(L220R)
Sequence (O76099 with tags, fused parts or gaps V126I/T295K/D296E/M297V/R299D/G302K): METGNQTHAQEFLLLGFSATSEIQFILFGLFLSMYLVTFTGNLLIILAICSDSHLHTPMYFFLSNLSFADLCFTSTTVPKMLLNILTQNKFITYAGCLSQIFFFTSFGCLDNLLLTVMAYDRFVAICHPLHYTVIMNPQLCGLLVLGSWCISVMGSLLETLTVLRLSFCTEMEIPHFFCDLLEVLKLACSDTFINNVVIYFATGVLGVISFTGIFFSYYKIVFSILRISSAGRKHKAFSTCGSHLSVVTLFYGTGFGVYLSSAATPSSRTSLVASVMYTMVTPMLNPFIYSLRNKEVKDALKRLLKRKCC
run-description: CRE-luciferase assay, HEK293T cells expressing OR7C1 (wild-type / modified C-terminus)
Type: cell-based
assay-context: OR7C1 variant, 1 μM Ambermax
Answer with a number only, understood to be in %.

Example entries and their recorded answers appear below.
SEQ ID NO: 116 (RNKEVKRAIKRLFKRKCC; source 1..18: note = C-terminal domain sequence) | 393.9
SEQ ID NO: 133 (RNKEVKDALKRLLKRKCRR; source 1..19: note = C-terminal domain sequence) | 188.9
SEQ ID NO: 122 (RNKEVKKAIKRLLKRKCR; source 1..18: note = C-terminal domain sequence) | 258.8
SEQ ID NO: 106 (RNKEVKDALKRLLKRRCC; source 1..18: note = C-terminal domain sequence) | 104.1
SEQ ID NO: 103 (RNKEVKDALKRLFKRKCC; source 1..18: note = C-terminal domain sequence) | 207.1

Measured % of the activation by the optimized sequence RNKEVKDALKRLLKRKCC, SEQ ID NO: 99 (RNKEVKDAIKRLLKRKCC; source 1..18: note = C-terminal domain sequence) : 174.6

Measured % of the activation by the optimized sequence RNKEVKDALKRLLKRKCC, SEQ ID NO: 111 (RNKEVKDALHRLLKRKCC; source 1..18: note = C-terminal domain sequence) : 44.4

Measured % of the activation by the optimized sequence RNKEVKDALKRLLKRKCC, SEQ ID NO: 101 (RNKEVKDALKKLLKRKCC; source 1..18: note = C-terminal domain sequence) : 86.8

---

tested-system: OR7D4 (Homo sapiens, UniProt Q8NG98, D296E/E302K/G299D)
Construct: Improved functional expression of modified OR-genes containing the truncated, optimized C-terminus; expressed in transfected cells
Sequence (Q8NG98 with tags, fused parts or gaps D296E/G299D/E302K): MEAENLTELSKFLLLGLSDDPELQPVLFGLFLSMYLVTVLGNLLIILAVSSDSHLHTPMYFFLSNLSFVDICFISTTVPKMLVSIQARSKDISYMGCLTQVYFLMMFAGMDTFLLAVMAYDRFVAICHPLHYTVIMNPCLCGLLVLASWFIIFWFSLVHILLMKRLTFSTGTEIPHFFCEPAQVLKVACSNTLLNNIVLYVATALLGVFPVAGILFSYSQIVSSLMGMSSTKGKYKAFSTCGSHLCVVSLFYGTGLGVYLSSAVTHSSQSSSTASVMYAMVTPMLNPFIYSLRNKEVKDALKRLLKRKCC
run-description: CRE-luciferase assay, HEK cells expressing OR7D4 (wild-type / modified C-terminus)
Assay type: cell-based
assay-context: OR7D4 variant, Androstenone
parameter-measured: EC2 Fold-improvement vs. wild-type
# respond with the number and nothing more

Example entries and their recorded answers appear below.
SEQ ID NO: 285 (RNKELKKALRRLIGRRCC; source 1..18: note = C-terminal domain sequence) | 41.00
SEQ ID NO: 271 (RNRDLRKAVRKLFKKKCC; source 1..18: note = C-terminal domain sequence) | 56.86
SEQ ID NO: 258 (RNRDVKKAVHKLFRRKCC; source 1..18: note = C-terminal domain sequence) | 152.59

Measured EC2 Fold-improvement vs. wild-type, SEQ ID NO: 256 (RNREVRKAVHRLFKRKCC; source 1..18: note = C-terminal domain sequence) : 385.42

Measured EC2 Fold-improvement vs. wild-type, SEQ ID NO: 296 (RNREVKKALRRLFGKKCC; source 1..18: note = C-terminal domain sequence) : 525.05

Measured EC2 Fold-improvement vs. wild-type, SEQ ID NO: 273 (RNRDVRKAIKKLIRKRCC; source 1..18: note = C-terminal domain sequence) : 373.12

Measured EC2 Fold-improvement vs. wild-type, SEQ ID NO: 283 (RNREVKKAVKKLIGKRCC; source 1..18: note = C-terminal domain sequence) : 128.83

Measured EC2 Fold-improvement vs. wild-type, SEQ ID NO: 280 (RNREMRKAIKKIIKKKCC; source 1..18: note = C-terminal domain sequence) : 187.06

Measured EC2 Fold-improvement vs. wild-type, SEQ ID NO: 270 (RNKDVRKAVRRLIKRKCC; source 1..18: note = C-terminal domain sequence) : 145.78

Measured EC2 Fold-improvement vs. wild-type, SEQ ID NO: 302 (RNREVRKAVRKLFRRKCC; source 1..18: note = C-terminal domain sequence) : 126.99

Measured EC2 Fold-improvement vs. wild-type, SEQ ID NO: 272 (RNRDLRKALRRIFKRRCC; source 1..18: note = C-terminal domain sequence) : 136.52

Measured EC2 Fold-improvement vs. wild-type, SEQ ID NO: 255 (RNREVKKAIHKLIGRKCC; source 1..18: note = C-terminal domain sequence) : 164.23

Measured EC2 Fold-improvement vs. wild-type, SEQ ID NO: 288 (RNKEVRKALKKLFGKKCC; source 1..18: note = C-terminal domain sequence) : 294.52
